TEST: Lipophilicity, log D of the compound
Format: physicochemical
RUN_CONDITIONS: octanol/water
PROPERTY_MEASURED: logD
Keep it simple and answer with nothing but the number.

Can you look up the measured logD of CN(C)CCNc1ccc(Cn2c(=O)[nH]c3c(N)nc(C(F)(F)F)cc32)cn1 for me?
0.7

Continue with COCCN1CCN(c2ccc(Cn3c(=O)[nH]c4c(N)nc(C(F)(F)F)cc43)cn2)CC1
2.3

Okay, and CN(C)CCN1CCN(c2ccc(Cn3c(=O)[nH]c4c(N)nc(C(F)(F)F)cc43)cn2)CC1 ?
0.9

Repeat with Nc1nc(C(F)(F)F)cc2c1[nH]c(=O)n2Cc1ccc(NCc2ccccc2)nc1
1.8

Can you handle CN(CCN1CCCCC1)c1ccc(Cn2c(=O)[nH]c3c(N)nc(C(F)(F)F)cc32)cn1 next?
1.8

###

TEST: Thermodynamic solubility of compound at physiological pH
Format: physicochemical
RUN_CONDITIONS: read-out: Therm_solubility
PROPERTY_MEASURED: solubility thermodynamic (µg/mL)
The response must be a number in µg/mL with no trailing unit.

Data request, read-out solubility thermodynamic, for CN(C)CCNc1ccc(Cn2c(=O)[nH]c3c(N)nc(C(F)(F)F)cc32)cn1
483

###

TEST: in vitro
RUN_CONDITIONS: rat, liver microsomes
For each record, write down the corresponding microsomal CLint.
Provide the reading as a plain figure in µL/min/mg.

// lookup microsomal CLint for CN1CCN(CCN(C)c2ccc(Cn3c(=O)[nH]c4c(N)nc(C(F)(F)F)cc43)cn2)CC1
15

Next molecule up: Nc1nc(C(F)(F)F)cc2c1[nH]c(=O)n2Cc1ccc(NCCN2CCCCC2)nc1
16

Field entry: CN(C)CCOc1ccc(Cn2c(=O)[nH]c3c(N)nc(C(F)(F)F)cc32)cn1
24

Then Nc1nc(C(F)(F)F)cc2c1[nH]c(=O)n2Cc1ccc(NCc2ccccc2)nc1 ?
16

How about Nc1nc(C(F)(F)F)cc2c1[nH]c(=O)n2Cc1ccc(OCCN2CCCC2)nc1 ?
9

// query: CN(C)CCNc1ccc(Cn2c(=O)[nH]c3c(N)nc(C(F)(F)F)cc32)cn1
16

###

Kindly state microsomal CLint for each of the entries shown.
TEST: in vitro
RUN_CONDITIONS: rat, liver microsomes
Note: unit µL/min/mg is implicit; provide only the numeric part.

What value of microsomal CLint has been recorded for this entry: CN(CCN1CCCCC1)c1ccc(Cn2c(=O)[nH]c3c(N)nc(C(F)(F)F)cc32)cn1
13

Can you handle COCCN1CCN(c2ccc(Cn3c(=O)[nH]c4c(N)nc(C(F)(F)F)cc43)cn2)CC1 next?
9

Also, CCN(CC)CCN(C)c1ccc(Cn2c(=O)[nH]c3c(N)nc(C(F)(F)F)cc32)cn1 please.
11

And for CN(C)CCN(C)c1ccc(Cn2c(=O)[nH]c3c(N)nc(C(F)(F)F)cc32)cn1 ?
11

###

TEST: Lipophilicity, log D of the compound
Type: physicochemical
RUN_CONDITIONS: octanol/water
PROPERTY_MEASURED: logD
Could you keep your reply to the number by itself?

What value of logD has been recorded for this entry: CN(C)CCOc1ccc(Cn2c(=O)[nH]c3c(N)nc(C(F)(F)F)cc32)cn1
1.2

Note, next up: CN1CCN(CCN(C)c2ccc(Cn3c(=O)[nH]c4c(N)nc(C(F)(F)F)cc43)cn2)CC1
1.5

Let us now turn to CN(C)CCN(C)c1ccc(Cn2c(=O)[nH]c3c(N)nc(C(F)(F)F)cc32)cn1
1.2

Repeat with CCN(CC)CCN(C)c1ccc(Cn2c(=O)[nH]c3c(N)nc(C(F)(F)F)cc32)cn1
1.3
